From: patent US20240199623A1

- Tested On: human wild type-CFTR (Homo sapiens)
- Sequence (P13569 whole entry): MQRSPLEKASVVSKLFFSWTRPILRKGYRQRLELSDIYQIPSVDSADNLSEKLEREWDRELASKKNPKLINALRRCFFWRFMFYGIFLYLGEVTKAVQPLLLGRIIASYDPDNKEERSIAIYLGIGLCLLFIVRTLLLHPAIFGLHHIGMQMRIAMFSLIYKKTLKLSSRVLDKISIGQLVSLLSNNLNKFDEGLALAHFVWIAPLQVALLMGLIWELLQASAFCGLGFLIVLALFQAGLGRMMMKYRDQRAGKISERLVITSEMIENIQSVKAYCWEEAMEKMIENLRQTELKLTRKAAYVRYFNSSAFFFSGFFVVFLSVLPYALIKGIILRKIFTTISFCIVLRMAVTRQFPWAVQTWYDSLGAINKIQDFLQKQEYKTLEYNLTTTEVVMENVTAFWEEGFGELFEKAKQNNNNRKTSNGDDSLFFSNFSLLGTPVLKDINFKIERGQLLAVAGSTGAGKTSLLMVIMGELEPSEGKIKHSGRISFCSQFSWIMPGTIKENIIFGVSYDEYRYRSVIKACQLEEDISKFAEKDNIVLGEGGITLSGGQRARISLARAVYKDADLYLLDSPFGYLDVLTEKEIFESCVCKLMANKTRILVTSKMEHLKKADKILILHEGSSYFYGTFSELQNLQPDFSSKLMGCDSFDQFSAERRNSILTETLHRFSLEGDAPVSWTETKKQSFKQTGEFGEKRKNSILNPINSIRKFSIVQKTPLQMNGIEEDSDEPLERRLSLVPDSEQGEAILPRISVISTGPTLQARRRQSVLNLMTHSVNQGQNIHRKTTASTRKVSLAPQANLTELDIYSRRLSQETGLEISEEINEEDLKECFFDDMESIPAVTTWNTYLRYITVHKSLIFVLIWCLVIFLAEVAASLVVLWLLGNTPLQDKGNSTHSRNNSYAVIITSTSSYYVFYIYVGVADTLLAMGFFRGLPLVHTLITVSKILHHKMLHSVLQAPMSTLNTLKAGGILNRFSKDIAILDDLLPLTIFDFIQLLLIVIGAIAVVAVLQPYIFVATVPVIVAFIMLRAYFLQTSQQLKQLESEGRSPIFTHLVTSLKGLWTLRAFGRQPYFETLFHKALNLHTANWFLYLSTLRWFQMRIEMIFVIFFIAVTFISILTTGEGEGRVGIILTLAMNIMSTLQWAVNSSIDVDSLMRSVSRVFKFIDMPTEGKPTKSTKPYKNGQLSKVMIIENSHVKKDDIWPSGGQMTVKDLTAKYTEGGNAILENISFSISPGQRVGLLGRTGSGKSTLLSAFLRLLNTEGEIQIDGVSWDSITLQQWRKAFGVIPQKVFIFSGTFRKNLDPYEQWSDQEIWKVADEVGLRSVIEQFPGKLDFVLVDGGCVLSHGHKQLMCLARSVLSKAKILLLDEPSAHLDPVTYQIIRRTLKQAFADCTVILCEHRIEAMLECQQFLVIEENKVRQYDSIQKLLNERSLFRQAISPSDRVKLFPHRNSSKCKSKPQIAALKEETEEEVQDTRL
- Assay Text: Cell-based YFP assay
- Parameters: expressed in transfected cells; host or cells: CHO-K1 (Chinese hamster ovary)
- Assay Setup: CHO-K1 cells expressing human wild type-CFTR and YFP-H148Q/I152L; forskolin 20 μM = 100% activity; read-out: Cell-based YFP Assay (EC50) Concentration Range
Reported Property: EC50

>  <Compound>
COc1cccc(C(=O)N2CCN(C(=O)c3cc4nccc(-c5ccc(OC)c(OC)c5)n4n3)C[C@@H]2C)c1 [Compound 318]

>  <Reported Property>
EC50

>  <Observed>
0.2 to 2 µM

$$$$
>  <Compound>
COc1ccc(-c2ccnc3cc(C(=O)N4CC[C@H](NC(=O)OC(C)(C)C)C4)nn23)cc1OC [Compound 145]

>  <Reported Property>
EC50

>  <Observed>
0.2 to 2 µM

$$$$
>  <Compound>
COc1ccc(-c2ccnc3cc(C(=O)Nc4cccc(C(=O)O)c4)nn23)cc1OC [Compound 16]

>  <Reported Property>
EC50

>  <Observed>
≥ 2 µM

$$$$
>  <Compound>
COc1ccc(-c2ccnc3cc(C(=O)Nc4ccc(C(=O)OCCN5CCOCC5)cn4)nn23)cc1OC [Compound 242]

>  <Reported Property>
EC50

>  <Observed>
< 0.2 µM

$$$$
>  <Compound>
COc1ccc(-c2ccnc3cc(C(=O)N4CCN(Cc5ccccc5)CC4)nn23)cc1OC [Compound 154]

>  <Reported Property>
EC50

>  <Observed>
0.2 to 2 µM

$$$$
>  <Compound>
CCOC(=O)[C@H]1CC[C@H](NC(=O)c2cc3nccc(-c4ccc(OC)c(OC)c4)n3n2)CC1 [Compound 330]

>  <Reported Property>
EC50

>  <Observed>
0.2 to 2 µM

$$$$
>  <Compound>
COc1ccc(-c2ccnc3cc(C(=O)N4CCN(Cc5ccccc5)[C@@H](C)C4)nn23)cc1OC [Compound 206]

>  <Reported Property>
EC50

>  <Observed>
0.2 to 2 µM

$$$$
